Data origin: patent US11459339B2

- EXPERIMENTAL TARGET: interaction between PD-1 and PD-L1 (Homo sapiens (Human))
- ASSAY OVERVIEW: PD1-PDL1 HTRF binding activity test (Cisbio PD-1/PD-L1 binding assay kit)
- MEASUREMENT CONDITIONS: read-out: PD1-PDL1 HTRF Binding Activity IC50
pIC50: −log10 of the molar value.
# cutoff 9 applies to pIC50; >= gives Y, < gives N

Please review the following examples before continuing.
> print(dat)
                                  structure                       experimental.target  answer.label
1  Cc1c(NC(=O)c2cc(C3CC3)c(CNCC(F)F)cn2)cccc1-c1cccc(NC(=O)c2cc(C3CC3)c(CNCC(F)F)cn2)c1C  interaction between PD-1 and PD-L1 (Homo sapiens (Human))             N
2  CC(=O)NCCNCc1cnc(C(=O)Nc2cccc(-c3cccc(NC(=O)c4cc(C)c(CNCCNC(C)=O)cn4)c3C)c2C)cc1C  interaction between PD-1 and PD-L1 (Homo sapiens (Human))             Y

Entry "COC(=O)CNCc1cnc(C(=O)Nc2cccc(-c3cccc(NC(=O)c4cc(C)c(CNCC(=O)OC)cn4)c3C)c2C)cc1C" : is its pIC50 no less than 9?
N

* * *

Below: a set of entries, each annotated with reported log10 of IC50.
- EXPERIMENTAL TARGET: interaction between PD-1 and PD-L1 (Homo sapiens (Human), UniProt Q9NZQ7)
- Sequence (Q9NZQ7 19-238): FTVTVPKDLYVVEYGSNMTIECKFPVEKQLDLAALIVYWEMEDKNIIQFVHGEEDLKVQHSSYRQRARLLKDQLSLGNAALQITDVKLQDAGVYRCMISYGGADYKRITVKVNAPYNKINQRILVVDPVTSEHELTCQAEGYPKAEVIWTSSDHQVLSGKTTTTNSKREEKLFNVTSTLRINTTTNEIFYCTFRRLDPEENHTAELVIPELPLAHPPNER
- ASSAY OVERVIEW: PD1-PDL1 HTRF binding activity test (Cisbio PD-1/PD-L1 binding assay kit)
- MEASUREMENT CONDITIONS: read-out: PD1-PDL1 HTRF Binding Activity IC50
A difference of one corresponds to tenfold IC50; all values are log10 with IC50 in pM.

Please review the following examples before continuing.
> print(dat)
                                  structure  reported.value
1  COc1cc(C(=O)Nc2cccc(-c3cccc(NC(=O)c4cc(OC)c(CN5CC[C@@H](O)C5)cn4)c3C)c2C)ncc1CN1CC[C@@H](O)C1            2.43
2  COc1cc(C(=O)Nc2cccc(-c3cccc(NC(=O)c4cc(OC)c(CN5CC[C@H](C(=O)O)C5)cn4)c3C)c2C)ncc1CN1CC[C@H](C(=O)O)C1            3.02

// log10 of IC50 value for "COCCN(C)Cc1cnc(C(=O)Nc2cccc(-c3cccc(NC(=O)c4cc(OC)c(CN(C)CCOC)cn4)c3C)c2C)cc1OC" : 2.87

// log10 of IC50 value for "COC(=O)[C@H]1CCN(Cc2cnc(C(=O)Nc3cccc(-c4cccc(NC(=O)c5cc(OC)c(CN6CC[C@H](C(=O)OC)C6)cn5)c4C)c3C)cc2OC)C1" : 3.28

// log10 of IC50 value for "COC(=O)[C@H]1CCN(Cc2cnc(C(=O)Nc3cccc(-c4cccc(NC(=O)c5cc(C6CC6)c(CN6CC[C@H](C(=O)OC)C6)cn5)c4C)c3C)cc2C2CC2)C1" : 4.07

// log10 of IC50 value for "COC(=O)[C@@H](CO)NCc1cnc(C(=O)Nc2cccc(-c3cccc(NC(=O)c4cc(C)c(CN[C@H](CO)C(=O)OC)cn4)c3C)c2C)cc1C" : 2.56

* * *

Below: a set of entries, each annotated with reported pIC50.
- EXPERIMENTAL TARGET: interaction between PD-1 and PD-L1 (Homo sapiens (Human))
- ASSAY OVERVIEW: PD1-PDL1 HTRF binding activity test (Cisbio PD-1/PD-L1 binding assay kit)
- MEASUREMENT CONDITIONS: read-out: PD1-PDL1 HTRF Binding Activity IC50
Note on pIC50: it is the negative log10 of concentration, concentration in mol/L.

Please review the following examples before continuing.
> print(dat)
                                   compound                       experimental.target  reported.value
1  Cc1c(NC(=O)c2cc(C3CC3)c(CNC3(C(=O)O)CC3)cn2)cccc1-c1cccc(NC(=O)c2cc(C3CC3)c(CNC3(C(=O)O)CC3)cn2)c1C [Example 128]  interaction between PD-1 and PD-L1 (Homo sapiens (Human))            8.88
2  COc1cc(C(=O)Nc2cccc(-c3cccc(NC(=O)c4cc(OC)c(CN[C@H]5C[C@@H](O)C5)cn4)c3C)c2C)ncc1CN[C@H]1C[C@@H](O)C1 [Example 53]  interaction between PD-1 and PD-L1 (Homo sapiens (Human))            9.82
3  CCOC(=O)CN(C)Cc1cnc(C(=O)Nc2cccc(-c3cccc(NC(=O)c4cc(C5CC5)c(CN(C)CC(=O)OCC)cn4)c3C)c2C)cc1C1CC1 [Example 129]  interaction between PD-1 and PD-L1 (Homo sapiens (Human))            6.99
4  Cc1c(NC(=O)c2cc(C3CC3)c(CN3CC[C@H](O)C3)cn2)cccc1-c1cccc(NC(=O)c2cc(C3CC3)c(CN3CC[C@H](O)C3)cn2)c1C [Example 101]  interaction between PD-1 and PD-L1 (Homo sapiens (Human))            8.96
5  COc1cc(C(=O)Nc2cccc(-c3cccc(NC(=O)c4cc(OC)c(CNCCO)cn4)c3C)c2C)ncc1CNCCO [Example 3]  interaction between PD-1 and PD-L1 (Homo sapiens (Human))            9.70

Kindly review the next compound as well.
So the reported pIC50 for COc1cc(C(=O)Nc2cccc(-c3cccc(NC(=O)c4cc(OC)c(CNCCO)cn4)c3Cl)c2C)ncc1CNCCO [Example 141] , on interaction between PD-1 and PD-L1 (Homo sapiens (Human)), turned out to be 9.12

* * *

- EXPERIMENTAL TARGET: interaction between PD-1 and PD-L1 expressed on cell surfaces (Homo sapiens (Human), UniProt Q9NZQ7)
- Sequence (Q9NZQ7 19-290): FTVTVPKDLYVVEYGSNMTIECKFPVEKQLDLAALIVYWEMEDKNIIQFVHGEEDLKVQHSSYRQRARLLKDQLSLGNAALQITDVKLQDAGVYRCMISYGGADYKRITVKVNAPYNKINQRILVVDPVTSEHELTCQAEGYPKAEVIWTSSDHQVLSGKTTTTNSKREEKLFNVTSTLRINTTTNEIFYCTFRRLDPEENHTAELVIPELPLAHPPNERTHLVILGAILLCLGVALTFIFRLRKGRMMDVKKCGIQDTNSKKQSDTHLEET
- ASSAY OVERVIEW: Jurkat reporter gene cellular assay (Jurkat/NF-κB-luc/PD1 cells cocultured with Raji-PD-L1 cells, OKT-3 stimulation)
- Format: cell-based
- MEASUREMENT CONDITIONS: NF-κB-luc reporter activation fold, 6 hrs; read-out: Cell Activity EC50
pEC50: −log10 of the molar value.
Each entry belongs to exactly one class, chosen by where its pEC50 falls: low-valued: < 6; mid-valued: ≥ 6 and < 7; high-valued: ≥ 7

Please review the following examples before continuing.
> print(dat)
                                  structure  answer.label
1  Cc1c(NC(=O)c2cc(C3CC3)c(CN3CC[C@H](O)C3)cn2)cccc1-c1cccc(NC(=O)c2cc(C3CC3)c(CN3CC[C@H](O)C3)cn2)c1C    mid-valued
2  COc1cc(C(=O)Nc2cccc(-c3cccc(NC(=O)c4cc(OC)c(CN[C@H]5C[C@@H](O)C5)cn4)c3C)c2C)ncc1CN[C@H]1C[C@@H](O)C1   high-valued
3  CCOC(=O)C[C@@H](NCc1cnc(C(=O)Nc2cccc(-c3cccc(NC(=O)c4cc(C5CC5)c(CN[C@H](CC(=O)OCC)C(=O)OCC)cn4)c3C)c2C)cc1C1CC1)C(=O)OCC    low-valued
4  COc1cc(C(=O)Nc2cccc(-c3cccc(NC(=O)c4cc(OC)c(CN[C@H]5CCC[C@@H]5O)cn4)c3C)c2C)ncc1CN[C@H]1CCC[C@@H]1O   high-valued
5  COC(=O)[C@H]1CCN(Cc2cnc(C(=O)Nc3cccc(-c4cccc(NC(=O)c5cc(OC)c(CN6CC[C@H](C(=O)OC)C6)cn5)c4C)c3C)cc2OC)C1    mid-valued

Could you tell me which band "COC(=O)[C@H](CO)NCc1cnc(C(=O)Nc2cccc(-c3cccc(NC(=O)c4cc(C)c(CN[C@@H](CO)C(=O)OC)cn4)c3C)c2C)cc1C" belongs to?
low-valued

Could you tell me which band "COc1cc(C(=O)Nc2cccc(-c3cccc(NC(=O)c4cc(OC)c(CN5C[C@H](O)C[C@H]5C(=O)O)cn4)c3C)c2C)ncc1CN1C[C@H](O)C[C@H]1C(=O)O" belongs to?
mid-valued

Could you tell me which band "COc1cc(C(=O)Nc2cccc(-c3cccc(NC(=O)c4cc(OC)c(CN5CCC(C(=O)O)CC5)cn4)c3C)c2C)ncc1CN1CCC(C(=O)O)CC1" belongs to?
mid-valued

* * *

- EXPERIMENTAL TARGET: interaction between PD-1 and PD-L1 (Homo sapiens (Human))
- ASSAY OVERVIEW: PD1-PDL1 HTRF binding activity test (Cisbio PD-1/PD-L1 binding assay kit)
- MEASUREMENT CONDITIONS: read-out: PD1-PDL1 HTRF Binding Activity IC50
MEASUREMENT TYPE: IC50 (nM)
Your answer is read as nM, so omit the unit and give the number.

> print(dat)
                                  structure                       experimental.target  unit.text  reported.value
1  Cc1c(NC(=O)c2cc(C3CC3)c(CN[C@H](C)CO)cn2)cccc1-c1cccc(NC(=O)c2cc(C3CC3)c(CN[C@H](C)CO)cn2)c1C  interaction between PD-1 and PD-L1 (Homo sapiens (Human))         nM            2.02
2  COc1cc(C(=O)Nc2cccc(-c3cccc(NC(=O)c4cc(OC)c(CN(C)CCO)cn4)c3C)c2C)ncc1CN(C)CCO  interaction between PD-1 and PD-L1 (Homo sapiens (Human))         nM            0.04
3  Cc1cc(C(=O)Nc2cccc(-c3cccc(NC(=O)c4cc(C)c(CN5CC[C@@H](O)C5)cn4)c3C)c2C)ncc1CN1CC[C@@H](O)C1  interaction between PD-1 and PD-L1 (Homo sapiens (Human))         nM            0.13
4  Cc1c(NC(=O)c2ccc(CN[C@H](CO)C(=O)O)cn2)cccc1-c1cccc(NC(=O)c2ccc(CN[C@H](CO)C(=O)O)cn2)c1C  interaction between PD-1 and PD-L1 (Homo sapiens (Human))         nM            0.79
5  COc1cc(C(=O)Nc2cccc(-c3cccc(NC(=O)c4cc(OC)c(CN[C@@H]5COC(=O)C5)cn4)c3C)c2C)ncc1CN[C@@H]1COC(=O)C1  interaction between PD-1 and PD-L1 (Homo sapiens (Human))         nM            0.48

Kindly review the next compound as well.
// IC50 value for "COc1cc(C(=O)Nc2cccc(-c3cccc(NC(=O)c4cc(OC)c(CNCC(C)(C)O)cn4)c3C)c2C)ncc1CNCC(C)(C)O" : 0.29
